biological target: Peroxisome proliferator-activated receptor alpha (Homo sapiens)
Sequence (Q07869 whole entry): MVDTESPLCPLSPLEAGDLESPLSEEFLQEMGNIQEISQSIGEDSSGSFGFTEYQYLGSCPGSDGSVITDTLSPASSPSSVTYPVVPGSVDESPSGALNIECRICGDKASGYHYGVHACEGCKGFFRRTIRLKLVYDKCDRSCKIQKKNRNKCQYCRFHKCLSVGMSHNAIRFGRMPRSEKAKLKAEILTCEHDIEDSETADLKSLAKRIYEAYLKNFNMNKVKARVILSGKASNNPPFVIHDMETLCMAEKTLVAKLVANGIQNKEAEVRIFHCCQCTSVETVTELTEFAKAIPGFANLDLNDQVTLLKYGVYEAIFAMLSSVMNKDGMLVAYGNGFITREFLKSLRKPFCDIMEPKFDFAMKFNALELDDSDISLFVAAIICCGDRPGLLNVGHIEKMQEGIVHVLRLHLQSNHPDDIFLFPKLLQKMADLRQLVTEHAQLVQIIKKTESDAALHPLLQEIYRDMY
pEC50: −log10 of the molar value.
Output True for pEC50 not less than 6; output False otherwise.

Check if pEC50 >= 6 (inclusive). Item: "CCO[C@@H](Cc1ccc(OCC=C(c2ccc(-c3ccco3)cc2)c2ccc(-c3ccco3)cc2)cc1)C(=O)O"
False

Check if pEC50 >= 6 (inclusive). Item: "CCO[C@@H](Cc1ccc(OCCN(c2ccccc2)c2ccccc2)cc1)C(=O)O"
False

Check if pEC50 >= 6 (inclusive). Item: "CCO[C@@H](Cc1ccc(OCC=C(c2ccc(Br)cc2)c2ccc(Br)cc2)cc1)C(=O)O"
True

Check if pEC50 >= 6 (inclusive). Item: "CCO[C@@H](Cc1ccc(OCC=C(c2ccccc2)c2ccccc2)cc1)C(=O)O"
False
